biological target: Myt1 kinase (recombinant PMYT-1) (Homo sapiens, UniProt Q99640); construct: full length PMYT-1 was expressed by baculovirus in insect cells; purchased Invitrogen A30984; host or cells: insect cells (baculovirus); test: Myt1 kinase binding assay (LanthaScreen Eu Kinase Binding Assay); conditions: 3 nM tracer 178, 2.5 nM PMYT-1, 1 nM Eu-labeled antibody; read-out: Myt1 kinase Binding IC50
Sequence (Q99640 whole entry): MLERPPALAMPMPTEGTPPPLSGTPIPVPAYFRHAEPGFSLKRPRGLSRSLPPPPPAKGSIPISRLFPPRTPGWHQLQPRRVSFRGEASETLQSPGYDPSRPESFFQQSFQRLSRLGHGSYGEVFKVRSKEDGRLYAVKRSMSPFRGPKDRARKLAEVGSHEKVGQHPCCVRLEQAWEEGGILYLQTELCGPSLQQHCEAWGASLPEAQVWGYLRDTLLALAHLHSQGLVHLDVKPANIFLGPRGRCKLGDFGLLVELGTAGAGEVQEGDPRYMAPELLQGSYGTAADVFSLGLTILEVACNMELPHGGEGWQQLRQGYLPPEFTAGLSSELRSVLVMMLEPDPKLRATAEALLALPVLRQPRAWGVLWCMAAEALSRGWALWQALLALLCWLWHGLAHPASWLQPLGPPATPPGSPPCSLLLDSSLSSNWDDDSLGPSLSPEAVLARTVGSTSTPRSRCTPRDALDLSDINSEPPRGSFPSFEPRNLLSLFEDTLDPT
pIC50: −log10 of the molar value.
Record form. Attribute: pIC50. Fill in for each entry.

>>> df
                                   molecule   measurement
0  C=CCn1c(=O)c2cnc(Nc3ccc4c(cnn4C)c3)nc2n1-c1cccc(OC2CCN(C)C(C)(C)C2)n1 (stereo not shown)  6.30 to 7.00
1  C=CCn1c(=O)c2cnc(Nc3ccc(F)cc3)nc2n1-c1cccc(OC2CCNCC2)n1  7.00 to 7.70
2  C=CCn1c(=O)c2cnc(Nc3cncc(F)c3)nc2n1-c1cccc(OC2CCNCC2)n1  7.00 to 7.70

Give measured pIC50 for every item shown.
1. CCn1c(=O)c2cnc(Nc3ccc(Br)cc3)nc2n1-c1cccc(OC2CCNCC2)n1
2. C=CCn1c(=O)c2cnc(Nc3ccc4c(cnn4C)c3)nc2n1-c1cccc(N[C@@H]2CCN(CC)C2)n1
3. C=CCn1c(=O)c2cnc(Nc3ccc(F)c(C)c3)nc2n1-c1cccc(OC2CCN(C)CC2)n1
4. C=CCn1c(=O)c2cnc(Nc3ccc4c(cnn4C)c3)nc2n1-c1cccc(OC2CCCN(C)CC2)n1 (single isomer, unassigned) [Compound 373]

Reply |
1. 7.00 to 7.70
2. 6.30 to 7.00
3. 7.00 to 7.70
4. > 7.70
